- System: Panc 05.04 cells (pancreatic cancer cells; Q699H and K700E mutations in SF3B1)
- RUN_DESCRIPTION: Cell viability assay (CellTiter-Glo, 72 hr), Panc 05.04 cells
- Format: cell-based
- CONDITION_LABEL: Panc 05.04 cells (mutant SF3B1); maximum achievable response in tested dose range, negative value = cellular lethality; read-out: Panc 05.04 (mt SF3B1 cells) Emax (%)
Give measured Emax for each item. Keep answers brief.
Kindly report the value followed by its unit.

Item CC[C@H](O)[C@@H](C)[C@H]1O[C@@H]1C[C@@](C)(O)/C=C/C=C(\C)[C@H]1OC(=O)C[C@H](O)CC[C@H](C)[C@@H](OC(C)=O)/C=C/[C@@H]1C : provide Emax
-65.3%

Item C/C(=C\C=C\[C@H](C)c1ccccn1)[C@H]1OC(=O)C[C@H](O)CC[C@@](C)(O)[C@@H](OC(=O)N2CCC(N3CCCCCC3)CC2)/C=C/[C@@H]1C : provide Emax
-93.8%

Item CC(=O)O[C@H]1/C=C/[C@H](C)[C@@H](/C(C)=C/C=C/[C@H](C)c2ccccn2)OC(=O)C[C@H](O)CC[C@@]1(C)O : provide Emax
1.96%

###

- System: Panc 05.04 cells (pancreatic cancer cells; Q699H and K700E mutations in SF3B1)
- RUN_DESCRIPTION: Cell viability assay (CellTiter-Glo, 72 hr), Panc 05.04 cells
- Type: cell-based
- CONDITION_LABEL: Panc 05.04 cells (mutant SF3B1); maximum achievable response in tested dose range, negative value = cellular lethality; read-out: Panc 05.04 (mt SF3B1 cells) Emax (%)
- Experimental: Cells (WiDr and Panc05.04 obtained from ATCC) were seeded in 96-well plates, with 2000 cells/100 μL/well, and incubated overnight. […] Another plate with cells seeded was dedicated as a time zero (Tz) plate, to which was added 0.1% DMSO in media (100 μL/well) followed by CellTiter-Glo® reagent (Promega Corporation, Madison, Wisconsin) (50 μL/well) for ATP measurement as a surrogate of cell viability. […] Then, CellTiter-Glo® reagent (50 μL/well) was added and ATP was measured. […]
Decide using Emax: a value greater than or equal to -80% is fulfilled, a smaller one is not fulfilled.

In plain terms: is recorded Emax at least -80% for C/C(=C\C=C\[C@@H](C)COC(=O)N1CC[C@@H](O)C1)[C@H]1OC(=O)C[C@H](O)CC[C@H](C)[C@@H](OC(=O)N2CCN(C)CC2)/C=C/[C@@H]1C ?
not fulfilled

In plain terms: is recorded Emax at least -80% for CC(=O)O[C@H]1/C=C/[C@H](C)[C@@H](/C(C)=C/C=C/C(C)c2ccccc2)OC(=O)C[C@H](O)CC[C@@]1(C)O (stereo partly drawn) ?
fulfilled

In plain terms: is recorded Emax at least -80% for C/C(=C\C=C\[C@@H](C)COC(=O)N1CCCC1(C)C)[C@H]1OC(=O)C[C@H](O)CC[C@@](C)(O)[C@@H](OC(=O)N2CCN(C3CCCCCC3)CC2)/C=C/[C@@H]1C ?
not fulfilled

In plain terms: is recorded Emax at least -80% for COC(=O)OC[C@H](C)/C=C/C=C(\C)[C@H]1OC(=O)C[C@H](O)CC[C@@](C)(O)[C@@H](OC(=O)N2CCN(C)CC2)/C=C/[C@@H]1C ?
not fulfilled

In plain terms: is recorded Emax at least -80% for C/C(=C\C=C\[C@@H](C)CNC(=O)N1CCC[C@H]1CO)[C@H]1OC(=O)C[C@H](O)CC[C@@](C)(O)[C@@H](OC(=O)N2CCN(C3CCCCCC3)CC2)/C=C/[C@@H]1C ?
not fulfilled

In plain terms: is recorded Emax at least -80% for COCc1ccccc1CCC(C)/C=C/C=C(\C)[C@H]1OC(=O)C[C@H](O)CC[C@@](C)(O)[C@@H](OC(C)=O)/C=C/[C@@H]1C (stereo partly drawn) ?
fulfilled

In plain terms: is recorded Emax at least -80% for CCCNC(=O)OC[C@H](C)/C=C/C=C(\C)[C@H]1OC(=O)C[C@H](O)CC[C@@](C)(O)[C@@H](OC(C)=O)/C=C/[C@@H]1C ?
fulfilled

In plain terms: is recorded Emax at least -80% for CC(=O)O[C@H]1/C=C/[C@H](C)[C@@H](/C(C)=C/C=C/[C@@H](C)COC(=O)N(C)C(C)C)OC(=O)C[C@H](O)CC[C@@]1(C)O ?
not fulfilled

In plain terms: is recorded Emax at least -80% for CC(=O)O[C@H]1/C=C/[C@H](C)[C@@H](/C(C)=C/C=C/[C@@H](C)c2ccccn2)OC(=O)C[C@H](O)CC[C@@]1(C)O ?
fulfilled

In plain terms: is recorded Emax at least -80% for CC(=O)O[C@H]1/C=C/[C@H](C)[C@@H](/C(C)=C/C=C/[C@@H](C)COC(N)=O)OC(=O)C[C@H](O)CC[C@@]1(C)O ?
fulfilled

In plain terms: is recorded Emax at least -80% for C/C(=C\C=C\[C@@H](C)c1ccccn1)[C@H]1OC(=O)C[C@H](O)CC[C@H](C)[C@@H](OC(=O)N2CCN(C3CCCCCC3)CC2)/C=C/[C@@H]1C ?
not fulfilled

###

Give measured IC50 for each item. Keep answers brief.
- ASSAYED_SYSTEM: SF3b complexes (Homo sapiens, UniProt O75533+Q7RTV0)
- Construct: endogenous in cells
- RUN_DESCRIPTION: Scintillation proximity assay (SPA) with [3H]-labelled pladienolide probe
- CONDITION_LABEL: wt SF3B1, read-out: SPA (wt SF3B1 cells) IC50

Item C/C(=C\C=C\[C@@H](C)c1ccccn1)[C@H]1OC(=O)C[C@H](O)CC[C@@](C)(O)[C@@H](OC(=O)N2CCOCC2)/C=C/[C@@H]1C : provide IC50
480 nM

Item CC(=O)O[C@H]1/C=C/[C@H](C)[C@@H](/C(C)=C/C=C/[C@@H](C)CO)OC(=O)C[C@H](O)CC[C@@]1(C)O : provide IC50
326 nM

Item C/C(=C\C=C\[C@@H](C)COC(=O)N1CCC[C@H]1CO)[C@H]1OC(=O)CCCCC[C@@H](OC(=O)N2CCN(C)CC2)/C=C/[C@@H]1C : provide IC50
3.61 nM

###

- System: Panc 05.04 cells (pancreatic cancer cells; Q699H and K700E mutations in SF3B1)
- RUN_DESCRIPTION: Cell viability assay (CellTiter-Glo, 72 hr), Panc 05.04 cells
- Type: cell-based
- CONDITION_LABEL: Panc 05.04 cells (mutant SF3B1); read-out: Panc 05.04 (mt SF3B1 cells), GI50
Field 'label' (enum: Criterion met / Criterion not met). Set to Criterion met when GI50 is strictly under 2 nM; else Criterion not met.

Lab note: confirm whether the reported GI50 for this compound is below 2 nM, equality not counting. compound: C/C(=C\C=C\[C@@H](C)c1ccccn1)[C@H]1OC(=O)C[C@H](O)CC[C@H](C)[C@@H](OC(=O)N(C)C)/C=C/[C@@H]1C
Criterion not met

Lab note: confirm whether the reported GI50 for this compound is below 2 nM, equality not counting. compound: COC[C@@H]1CCCN1C(=O)OC[C@H](C)/C=C/C=C(\C)[C@H]1OC(=O)C[C@H](O)CC[C@@](C)(O)[C@@H](OC(=O)N2CCN(C3CCCCCC3)CC2)/C=C/[C@@H]1C
Criterion not met

Lab note: confirm whether the reported GI50 for this compound is below 2 nM, equality not counting. compound: C/C(=C\C=C\[C@@H](C)COC(=O)N1CC[C@@H](C)C1)[C@H]1OC(=O)C[C@H](O)CC[C@@](C)(O)[C@@H](OC(=O)N2CCN(C3CCCCCC3)CC2)/C=C/[C@@H]1C
Criterion met

Lab note: confirm whether the reported GI50 for this compound is below 2 nM, equality not counting. compound: CC(=O)O[C@H]1/C=C/[C@H](C)[C@@H](/C(C)=C/C=C/[C@@H](C)COC(=O)N2CCCCC2)OC(=O)C[C@H](O)CC[C@@]1(C)O
Criterion not met

Lab note: confirm whether the reported GI50 for this compound is below 2 nM, equality not counting. compound: CC(=O)O[C@H]1/C=C/[C@H](C)[C@@H](/C(C)=C/C=C/[C@@H](C)COC(=O)N2CCC[C@H]2C)OC(=O)C[C@H](O)CC[C@@]1(C)O
Criterion not met

Lab note: confirm whether the reported GI50 for this compound is below 2 nM, equality not counting. compound: C/C(=C\C=C\[C@@H](C)c1ccccn1)[C@H]1OC(=O)C[C@H](O)CC[C@H](C)[C@@H](OC(=O)N2CCN(C)CC2)/C=C/[C@@H]1C
Criterion not met

###

- Tested on: Panc 05.04 cells (pancreatic cancer cells; Q699H and K700E mutations in SF3B1)
- RUN_DESCRIPTION: Cell viability assay (CellTiter-Glo, 72 hr), Panc 05.04 cells
- Format: cell-based
- CONDITION_LABEL: Panc 05.04 cells (mutant SF3B1); maximum achievable response in tested dose range, negative value = cellular lethality; read-out: Panc 05.04 (mt SF3B1 cells) Emax (%)
Give measured Emax for each item. Keep answers brief.
Use % as the unit, but write only the number.

Return reported Emax for target or system Panc 05.04 cells (pancreatic cancer cells; Q699H and K700E mutations in SF3B1), item C/C(=C\C=C\[C@@H](C)COC(=O)N1CC[C@@H](C)C1)[C@H]1OC(=O)C[C@H](O)CC[C@@](C)(O)[C@@H](OC(=O)N2CCN(C3CCCCCC3)CC2)/C=C/[C@@H]1C .
-86.6

Return reported Emax for target or system Panc 05.04 cells (pancreatic cancer cells; Q699H and K700E mutations in SF3B1), item C/C(=C\C=C\[C@@H](C)COC(=O)N1CC[C@H](C)C1)[C@H]1OC(=O)C[C@H](O)CC[C@@](C)(O)[C@@H](OC(=O)N2CCN(C3CCCCCC3)CC2)/C=C/[C@@H]1C .
-93.6

Return reported Emax for target or system Panc 05.04 cells (pancreatic cancer cells; Q699H and K700E mutations in SF3B1), item C/C(=C\C=C\[C@@H](C)COC(=O)N1CC[C@@H](N(C)C)C1)[C@H]1OC(=O)C[C@H](O)CC[C@@](C)(O)[C@@H](OC(=O)N2CCN(C3CCCCCC3)CC2)/C=C/[C@@H]1C .
-85.4

Return reported Emax for target or system Panc 05.04 cells (pancreatic cancer cells; Q699H and K700E mutations in SF3B1), item CC[C@H](OC(C)=O)[C@@H](C)[C@H]1O[C@@H]1C[C@@](C)(O)/C=C/C=C(\C)[C@H]1OC(=O)C[C@H](O)CC[C@@](C)(O)[C@@H](OC(=O)N2CCN(C3CCCCCC3)CC2)/C=C/[C@@H]1C .
-78.6

Return reported Emax for target or system Panc 05.04 cells (pancreatic cancer cells; Q699H and K700E mutations in SF3B1), item C/C(=C\C=C\[C@@H](C)COC(=O)N1CCC[C@H]1C(N)=O)[C@H]1OC(=O)C[C@H](O)CC[C@@](C)(O)[C@@H](OC(=O)N2CCN(C3CCCCCC3)CC2)/C=C/[C@@H]1C .
-92.9

Return reported Emax for target or system Panc 05.04 cells (pancreatic cancer cells; Q699H and K700E mutations in SF3B1), item C/C(=C\C=C\[C@@H](C)COC(=O)N1CCCC1)[C@H]1OC(=O)CCCCC[C@@H](NC(=O)N2CCN(C)CC2)/C=C/[C@@H]1C .
-93.6

Return reported Emax for target or system Panc 05.04 cells (pancreatic cancer cells; Q699H and K700E mutations in SF3B1), item C/C(=C\C=C\C(C)c1ncccn1)[C@H]1OC(=O)C[C@H](O)CC[C@@](C)(O)[C@@H](OC(=O)N2CCN(C)CC2)/C=C/[C@@H]1C (some centres unmarked) .
-22.2

Return reported Emax for target or system Panc 05.04 cells (pancreatic cancer cells; Q699H and K700E mutations in SF3B1), item C/C(=C\C=C\[C@@H](C)c1ccccn1)[C@H]1OC(=O)C[C@H](O)CC[C@@](C)(O)[C@@H](OC(=O)N2CCN(C3CCC3)CC2)/C=C/[C@@H]1C .
-83.6

Return reported Emax for target or system Panc 05.04 cells (pancreatic cancer cells; Q699H and K700E mutations in SF3B1), item C/C(=C\C=C\C(C)c1ncccn1)[C@H]1OC(=O)C[C@H](O)CC[C@@](C)(O)[C@@H](OC(=O)N2CCN(C3CCCCCC3)CC2)/C=C/[C@@H]1C (some centres unmarked) .
-91.6

Return reported Emax for target or system Panc 05.04 cells (pancreatic cancer cells; Q699H and K700E mutations in SF3B1), item C/C(=C\C=C\C(C)c1cccnn1)[C@H]1OC(=O)C[C@H](O)CC[C@@](C)(O)[C@@H](OC(=O)N2CCN(C)CC2)/C=C/[C@@H]1C (some centres unmarked) .
-90.9

Return reported Emax for target or system Panc 05.04 cells (pancreatic cancer cells; Q699H and K700E mutations in SF3B1), item C/C(=C\C=C\[C@@H](C)c1ccccn1)[C@H]1OC(=O)C[C@H](O)CC[C@@](C)(O)[C@@H](OC(=O)N2C[C@H]3C[C@H]2CN3C)/C=C/[C@@H]1C .
-29.4
